Where do the numbers come from? From the supplement of paper PMC9112550.

System: Escherichia coli TOP10
runDescription: shrunken log2 fold change of peptide-encoding DNA abundance (4.5 h post-induction vs induction); higher = less antimicrobial activity (less host growth inhibition)
conditionLabel: time post-induction: 4.5 h; library: site-saturation at positions 5, 18, 19, 20
Decide by shrunken log2 fold change: equal to or exceeding 0.03 means met, less means not met.

query: Quick check, shrunken log2 fold change >= 0.03? RRIRERPPRLPRPRPRPIQPPRP
result: met

query: Given RRIRMRPPRLPRPRPRPRMPPRP , state whether its shrunken log2 fold change is at least 0.03.
result: met

query: Check the entry RRIRVRPPRLPRPRPRPVDRPRP : does shrunken log2 fold change equal or exceed 0.03?
result: met

query: Record RRIRYRPPRLPRPRPRPKCKPRP ; criterion: shrunken log2 fold change no lower than 0.03. Met?
result: not met

query: # bool: shrunken log2 fold change of RRIRSRPPRLPRPRPRPDIKPRP >= 0.03
result: not met

query: API: above_or_equal(metric=shrunken log2 fold change, cutoff=0.03) for item RRIRRRPPRLPRPRPRPYLLPRP
result: not met

query: Confirm if shrunken log2 fold change reported for the sequence RRIRTRPPRLPRPRPRPEEEPRP is 0.03 or above.
result: met

query: Please indicate if the recorded shrunken log2 fold change for RRIRVRPPRLPRPRPRPKAAPRP meets or exceeds 0.03.
result: met

query: Tell me whether shrunken log2 fold change is at least 0.03 here: RRIRHRPPRLPRPRPRPPCVPRP
result: not met

query: Given RRIRCRPPRLPRPRPRPEWTPRP , state whether its shrunken log2 fold change is at least 0.03.
result: met

query: Item RRIRMRPPRLPRPRPRPYWMPRP with shrunken log2 fold change of 0.03 or above?
result: not met

query: Is it the case that RRIRIRPPRLPRPRPRPRGYPRP has shrunken log2 fold change reaching or exceeding 0.03?
result: not met

query: State whether the measured shrunken log2 fold change reaches 0.03, counting equality as reaching it, for RRIRSRPPRLPRPRPRPGCWPRP
result: met

query: Please tell me: is the sequence RRIRERPPRLPRPRPRPGSYPRP at or over 0.03 in terms of shrunken log2 fold change?
result: not met

query: Assess whether reported shrunken log2 fold change for RRIRDRPPRLPRPRPRPRWYPRP sits at 0.03 or higher.
result: not met

---

Measured shrunken log2 fold change by item
Test system: Escherichia coli TOP10;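 note: peptides expressed intracellularly from a pBAD plasmid library in pooled LB shake-flask culture, induced with 0.3% L-arabinose, DNA abundance read by NGS, three biological replicates, DESeq2 with apeglm shrinkage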
runDescription: shrunken log2 fold change of peptide-encoding DNA abundance (4.5 h post-induction vs induction); higher = less antimicrobial activity (less host growth inhibition)
conditionLabel: time post-induction: 4.5 h; library: site-saturation at positions 5, 18, 19, 20
Answer with a number only.

{"columns": ["sequence", "endpointLabel", "measuredNumber"],
 "data": [
  ["RRIRCRPPRLPRPRPRPYHFPRP", "shrunken log2 fold change", -1.01],
  ["RRIRERPPRLPRPRPRPGGKPRP", "shrunken log2 fold change", -0.0276],
  ["RRIRDRPPRLPRPRPRPGWFPRP", "shrunken log2 fold change", 0.297],
  ["RRIRFRPPRLPRPRPRPDKQPRP", "shrunken log2 fold change", -0.0106],
  ["RRIRWRPPRLPRPRPRPLPPPRP", "shrunken log2 fold change", 0.686]
]}

query: For the sequence RRIRPRPPRLPRPRPRPAHRPRP , what shrunken log2 fold change is on record?
result: 0.384

query: shrunken log2 fold change for RRIRRRPPRLPRPRPRPSRGPRP ?
result: 0.432

query: Look up shrunken log2 fold change for this sequence: RRIRCRPPRLPRPRPRPKMCPRP
result: -0.164

query: Which value of shrunken log2 fold change has been reported for RRIRGRPPRLPRPRPRPTPDPRP in the records?
result: 1.24

query: Find the recorded shrunken log2 fold change belonging to RRIRYRPPRLPRPRPRPDARPRP and report it.
result: -0.294

query: Look at this sequence and give its reported shrunken log2 fold change. RRIRWRPPRLPRPRPRPDESPRP
result: -0.0029

query: Dear colleague, I am looking for the recorded shrunken log2 fold change of the following sequence: RRIRVRPPRLPRPRPRPKKAPRP
result: 0.157
